- Experimental details: Lethal dose determined in Mice
- Assay type: toxicity
- Condition label: mouse, in vivo
Readout type: LD50 (mg/kg)
Record the value in mg/kg, omitting the unit from your answer.

## Input Form field: reported LD50 of Clc1ccc(C2CC3CCCC2N3)cn1 (stereo unspecified) [HOMOEPIBATIDINE]
## Output 10
